Listing of entries alongside the reported IC50.
assay: Inhibition of HIV-1 wild-type integrase using U5A/U5B-2 labeled double-stranded DNA as substrate by beta radiation counter analysis; parameters: species or system Human immunodeficiency virus 1
metric: IC50 (µM)

{"columns": ["structure_notation", "quantitative_result"],
 "data": [
  ["COc1ccc(/C=C/C(=O)Oc2ccc(C(c3c(O)c4ccccc4oc3=O)c3c(O)c4ccccc4oc3=O)cc2)cc1OC", 2.6],
  ["CC(=O)Oc1ccc(OC(C)=O)c(C(=O)Oc2ccc(C(c3c(O)c4ccccc4oc3=O)c3c(O)c4ccccc4oc3=O)cc2)c1", 9.7],
  ["CC(=O)Oc1ccc(C(=O)Oc2ccc(C(c3c(O)c4ccccc4oc3=O)c3c(O)c4ccccc4oc3=O)cc2)c(OC(C)=O)c1", 19],
  ["CC(=O)Oc1ccc(C(=O)Oc2ccc(C(c3c(O)c4ccccc4oc3=O)c3c(O)c4ccccc4oc3=O)cc2)cc1OC(C)=O", 1.9]
]}

====

molecular target: DNA polymerase beta (Homo sapiens, UniProt P06746)

{"columns": ["structure_notation", "system", "IC50 [µM]"],
 "data": [
  ["O=c1oc2ccccc2c(O)c1C(c1ccc(NC(=S)Nc2ccc([N+](=O)[O-])cc2)cc1)c1c(O)c2ccccc2oc1=O", "DNA polymerase beta (Homo sapiens, UniProt P06746)", 24.7]
]}

====

test: Inhibition of HIV-1 wild-type integrase using U5A/U5B-2 labeled double-stranded DNA as substrate by beta radiation counter analysis; set-up: species or system Human immunodeficiency virus 1
pIC50: −log10 of the molar value.
Recorded pIC50 for the following compounds

{"columns": ["structure_notation", "pIC50"],
 "data": [
  ["O=C(Oc1ccc(C(c2c(O)c3ccccc3oc2=O)c2c(O)c3ccccc3oc2=O)cc1)c1cccc(O)c1", 5.21],
  ["O=C(Oc1ccc(C(c2c(O)c3ccccc3oc2=O)c2c(O)c3ccccc3oc2=O)cc1)c1ccc(O)c(O)c1", 5.82],
  ["Cc1ccc(C(=O)OCCN(CCOC(=O)c2ccc(C)cc2)c2ccc(C(c3c(O)c4ccccc4oc3=O)c3c(O)c4ccccc4oc3=O)cc2)cc1", 5.74],
  ["CC(=O)Oc1cccc(C(=O)Oc2ccc(C(c3c(O)c4ccccc4oc3=O)c3c(O)c4ccccc4oc3=O)cc2)c1", 5.15]
]}

====

test: Inhibition of HIV-1 wild-type integrase using U5A/U5B-2 labeled double-stranded DNA as substrate by beta radiation counter analysis; design: species or system Human immunodeficiency virus 1
Listed next: entries and their corresponding IC50.

{"columns": ["compound", "IC50 / µM"],
 "data": [
  ["O=C(Oc1ccc(C(c2c(O)c3ccccc3oc2=O)c2c(O)c3ccccc3oc2=O)cc1)c1ccc(O)cc1", 3.2],
  ["O=C(Oc1ccc(C(c2c(O)c3ccccc3oc2=O)c2c(O)c3ccccc3oc2=O)cc1)c1ccc(C(c2c(O)c3ccccc3oc2=O)c2c(O)c3ccccc3oc2=O)cc1", 0.49],
  ["O=C(OCCN(CCOC(=O)c1ccc(Br)cc1)c1ccc(C(c2c(O)c3ccccc3oc2=O)c2c(O)c3ccccc3oc2=O)cc1)c1ccc(Br)cc1", 0.96],
  ["O=C(Oc1ccc(C(c2c(O)c3ccccc3oc2=O)c2c(O)c3ccccc3oc2=O)cc1)c1cc(O)cc(O)c1", 53],
  ["O=C(Oc1ccc(C(c2c(O)c3ccccc3oc2=O)c2c(O)c3ccccc3oc2=O)cc1)c1cc(O)ccc1O", 25],
  ["O=C(/C=C/c1ccc(O)c(O)c1)Oc1ccc(C(c2c(O)c3ccccc3oc2=O)c2c(O)c3ccccc3oc2=O)cc1", 2.6],
  ["O=C(Oc1ccc(C(c2c(O)c3ccccc3oc2=O)c2c(O)c3ccccc3oc2=O)cc1)c1ccccc1O", 10],
  ["Cc1ccc(C(=O)Oc2cc(OC(=O)c3ccc(C)cc3)cc(C(c3c(O)c4ccccc4oc3=O)c3c(O)c4ccccc4oc3=O)c2)cc1", 0.58],
  ["CC(=O)Oc1ccc(C(=O)Oc2ccc(C(c3c(O)c4ccccc4oc3=O)c3c(O)c4ccccc4oc3=O)cc2)cc1", 4.6],
  ["O=C(Oc1c(C(c2ccc(O)cc2)c2c(O)c3ccccc3oc2=O)c(=O)oc2ccccc12)c1ccc(O)c(O)c1 (stereo not given)", 37],
  ["O=C(Oc1ccc(C(c2c(O)c3ccccc3oc2=O)c2c(O)c3ccccc3oc2=O)cc1)c1ccc(O)cc1O", 4.9],
  ["CC(=O)Oc1ccccc1C(=O)Oc1ccc(C(c2c(O)c3ccccc3oc2=O)c2c(O)c3ccccc3oc2=O)cc1", 27],
  ["CC(=O)Oc1cc(OC(C)=O)cc(C(=O)Oc2ccc(C(c3c(O)c4ccccc4oc3=O)c3c(O)c4ccccc4oc3=O)cc2)c1", 9.3],
  ["O=C(CCCCC1CCSS1)Oc1ccc(C(c2c(O)c3ccccc3oc2=O)c2c(O)c3ccccc3oc2=O)cc1 (stereo not given)", 2.3],
  ["CC(=O)Oc1ccc(/C=C/C(=O)Oc2ccc(C(c3c(O)c4ccccc4oc3=O)c3c(O)c4ccccc4oc3=O)cc2)cc1OC(C)=O", 2.6]
]}

Recorded values, source ChEMBL document CHEMBL5260826.
